Listing of recorded IC50 by entry.
assay: Inhibition of guinea pig kidney Na+-K+ dependent ATPase after 10 to 20 mins; parameters: species or system Cavia porcellus; settings: read-out: I50
Write the value in µM as a bare number.

# annotated cases, reported IC50 shown
[[record]]
query_smiles = "N=C(NCCc1c[nH]c2ccccc12)C(Cl)(Cl)Cl"
recorded_endpoint = "IC50"
measured_number = 150

[[record]]
query_smiles = "COc1ccc(CNC(=N)C(F)(Cl)Cl)cc1"
recorded_endpoint = "IC50"
measured_number = 15

[[record]]
query_smiles = "COc1ccc(CNC(=N)C(Cl)(Cl)Cl)cc1.Cl"
recorded_endpoint = "IC50"
measured_number = 800


Q) # IC50 lookup, item C[C@@H]1O[C@@H](O[C@H]2C[C@@H](O)[C@]3(CO)[C@H]4[C@H](O)C[C@]5(C)[C@@H](C6=CC(=O)OC6)CC[C@]5(O)[C@@H]4CC[C@]3(O)C2)[C@H](O)[C@H](O)[C@H]1O
A) 0.5

---

Listing of recorded Activity by entry.
experiment: Positive inotropic activity in cat heart papillary muscle assessed as increase in contractile force at 0.156 ug/mL measured for 5 to 30 mins; type: functional, Felis catus, Muscle tissue

[[record]]
query_smiles = "N=C(NCCc1c[nH]c2ccccc12)C(Cl)(Cl)Cl"
result = "201 mg"

[[record]]
query_smiles = "CCCNC(=N)C(Cl)(Cl)Cl.Cl"
result = "< 200 mg"

[[record]]
query_smiles = "N=C(NCc1c[nH]c2ccccc12)C(Cl)(Cl)Cl"
result = "201 mg"


Q) # Activity lookup, item ClC(Cl)(Cl)C1=NCCCN1
A) <200 mg

---

Listing of recorded Activity by entry.
experiment: Positive inotropic activity in cat heart papillary muscle assessed as increase in contractile force at 10 ug/mL measured for 5 to 30 mins; format: functional, Felis catus, Muscle tissue

Q) # Activity lookup, item N=C(NCC(O)c1ccccc1)C(Cl)(Cl)Cl (configuration not stated)
A) >600 mg

Q) # Activity lookup, item N=C(NCc1cn(C(=O)c2ccccc2)c2ccccc12)C(Cl)(Cl)Cl
A) >600 mg

Q) # Activity lookup, item Cl.N=C(N)C(Cl)(Cl)Cl
A) >600 mg

---

test: Inhibition of guinea pig kidney Na+-K+ dependent ATPase preincubated for 30 mins measured after 10 to 20 mins; design: species or system Cavia porcellus; conditions: read-out: I50
Listing of recorded IC50 by entry.
Write the value in µM as a bare number.

# annotated cases, reported IC50 shown
[[record]]
query_smiles = "N=C(NCCc1c[nH]c2ccccc12)C(Cl)(Cl)Cl"
recorded_endpoint = "IC50"
measurement_units = "µM"
measured_number = 4

[[record]]
query_smiles = "COc1ccc(CNC(=N)C(F)(Cl)Cl)cc1"
recorded_endpoint = "IC50"
measurement_units = "µM"
measured_number = 2


# next compound below
Q) # IC50 lookup, item COc1ccc(CNC(=N)C(Cl)(Cl)Cl)cc1.Cl
A) 100

---

Listing of recorded pKa by entry.
test: Dissociation constant, pKa of the compound; assay type: physicochemical
Lab note: record just the number, no unit beside it.

[[record]]
query_smiles = "COc1ccc(CNC(=N)C(Cl)(Cl)Cl)cc1.Cl"
recorded_endpoint = "pKa"
measured_number = 6


Q) # pKa lookup, item COc1ccc(CNC(=N)C(Cl)(Cl)Br)cc1
A) 6.15

Q) # pKa lookup, item COc1ccc(CNC(=N)C(F)(Cl)Cl)cc1
A) 6.18

Q) # pKa lookup, item N=C(NCc1c[nH]c2ccccc12)C(Cl)(Cl)Cl
A) 6

---

test: Inhibition of calf heart Na+-K+ dependent ATPase preincubated for 30 mins measured after 10 to 20 mins; parameters: species or system Bos taurus; conditions: read-out: I50
Recorded endpoint: pIC50
Entry type: numeric. Quantity: pIC50, the -log10 of concentration in molar units.

[[record]]
molecule = "C[C@@H]1O[C@@H](O[C@H]2C[C@@H](O)[C@]3(CO)[C@H]4[C@H](O)C[C@]5(C)[C@@H](C6=CC(=O)OC6)CC[C@]5(O)[C@@H]4CC[C@]3(O)C2)[C@H](O)[C@H](O)[C@H]1O"
measured_number = 6.70

[[record]]
molecule = "N=C(NCc1c[nH]c2ccccc12)C(Cl)(Cl)Cl"
measured_number = 4.70

[[record]]
molecule = "CC(=O)OC(CNC(=N)C(Cl)(Cl)Cl)COc1ccccc1.Cl (stereo not given)"
measured_number = 4.15

[[record]]
molecule = "COc1ccc(CNC(=N)C(Cl)(Cl)Cl)cc1.Cl"
measured_number = 5.30


# next molecule below
Q) # pIC50 lookup, item COc1ccc(CNC(=N)C(F)(Cl)Cl)cc1
A) 5.70

---

assay: Positive inotropic activity in cat heart papillary muscle assessed as increase in contractile force at 10 ug/mL measured for 5 to 30 mins; type: functional, Felis catus, Muscle tissue
Listing of recorded Activity by entry.
Write the value in mg as a bare number.

# annotated cases, reported Activity shown
[[record]]
molecule = "COC(CNC(=N)C(Cl)(Cl)Cl)COc1ccccc1 (stereo not drawn)"
recorded_endpoint = "Activity"
measurement_units = "mg"
measured_number = 201

[[record]]
molecule = "COc1ccccc1CNC(=N)C(Cl)(Cl)Cl.Cl"
recorded_endpoint = "Activity"
measurement_units = "mg"
measured_number = 201


Q) # Activity lookup, item Cl.N=C(NCC1CC1)C(Cl)(Cl)Cl
A) 201

Q) # Activity lookup, item N=C(NCc1ccccc1CO)C(Cl)(Cl)Cl
A) 201

Q) # Activity lookup, item COc1cccc(CNC(=N)C(Cl)(Cl)Cl)c1.Cl
A) 201

Q) # Activity lookup, item Cl.N=C(NCCc1ccc(O)c(O)c1)C(Cl)(Cl)Cl
A) 201

---

test: Inhibition of calf heart Na+-K+ dependent ATPase after 10 to 20 mins; parameters: species or system Bos taurus; conditions: read-out: I50
Listing of recorded IC50 by entry.
Write the value in µM as a bare number.

Q) # IC50 lookup, item COc1ccc(CNC(=N)C(F)(Cl)Cl)cc1
A) 20

Q) # IC50 lookup, item N=C(NCCc1c[nH]c2ccccc12)C(Cl)(Cl)Cl
A) 33

Q) # IC50 lookup, item COc1ccc(CNC(=N)C(Cl)(Cl)Cl)cc1.Cl
A) 20

Q) # IC50 lookup, item CNC(=N)C(Cl)(Cl)Cl.Cl
A) 1000

Q) # IC50 lookup, item N=C(NCc1c[nH]c2ccccc12)C(Cl)(Cl)Cl
A) 45

Q) # IC50 lookup, item CC(=O)OC(CNC(=N)C(Cl)(Cl)Cl)COc1ccccc1.Cl (configuration not stated)
A) 170

Q) # IC50 lookup, item C[C@@H]1O[C@@H](O[C@H]2C[C@@H](O)[C@]3(CO)[C@H]4[C@H](O)C[C@]5(C)[C@@H](C6=CC(=O)OC6)CC[C@]5(O)[C@@H]4CC[C@]3(O)C2)[C@H](O)[C@H](O)[C@H]1O
A) 0.5

---

assay: Positive inotropic activity in cat heart papillary muscle assessed as increase in contractile force at 10 ug/mL measured for 5 to 30 mins; format: functional, Felis catus, Muscle tissue
Recorded endpoint: Activity

# annotated cases, reported Activity shown
[[record]]
compound = "Cn1cc(CNC(=N)C(Cl)(Cl)Cl)c2ccccc21"
result = "201 mg"

[[record]]
compound = "CC(=O)OC(CNC(=N)C(Cl)(Cl)Cl)COc1ccccc1.Cl (configuration not stated)"
result = ">600 mg"

[[record]]
compound = "C[C@H](NC(=N)C(Cl)(Cl)Cl)c1ccccc1.Cl"
result = "<200 mg"

[[record]]
compound = "C=CCNC(=N)C(Cl)(Cl)Cl.Cl"
result = ">600 mg"

[[record]]
compound = "ClC(Cl)(Cl)C1=NCCN1"
result = ">600 mg"


Q) # Activity lookup, item CC(=O)Nc1ccc(OCC(O)CNC(=N)C(Cl)(Cl)Cl)cc1 (configuration not stated)
A) 201 mg

Q) # Activity lookup, item Cl.N=C(NCCCNC(=N)C(Cl)(Cl)Cl)C(Cl)(Cl)Cl
A) <200 mg

---

assay: Positive inotropic activity in cat heart papillary muscle assessed as increase in contractile force at 10 ug/mL measured for 5 to 30 mins; type: functional, Felis catus, Muscle tissue
Recorded endpoint: Activity (mg)
Write the value in mg as a bare number.

[[record]]
molecule = "Cl.N=C(NCCCO)C(Cl)(Cl)Cl"
measurement_units = "mg"
measured_number = 201


# next molecule below
Q) # Activity lookup, item N=C(NCC(O)COc1ccccc1)C(Cl)(Cl)Cl (centres undefined)
A) 201
